B1: library; a variant is named by its letters at N, in order (parent)
chain: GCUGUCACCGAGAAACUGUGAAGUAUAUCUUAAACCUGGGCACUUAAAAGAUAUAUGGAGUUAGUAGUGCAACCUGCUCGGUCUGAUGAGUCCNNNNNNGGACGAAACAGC

- Variants of: B1
- testProtocol: normalized RNA/DNA level with ligand (relative to sTRSVctl = 100) (log10 (% of sTRSVctl)); HEK293T; ligand: cyclic di-GMP (c-di-GMP-II aptamer); ligand concentration (+) RNA-Seq: 1 mM; higher = less ribozyme self-cleavage, higher mRNA level
- studyConditions: reporter: mCherry (pCS4076), ligand present: yes
endpointLabel: normalized RNA/DNA level with ligand (log10)

{"variantLabel": "AGGUGG", "number": 1.78}
{"variantLabel": "UGUUUU", "number": 1.86}
{"variantLabel": "ACCCAG", "number": 1.86}
{"variantLabel": "AUUGCG", "number": 1.83}
{"variantLabel": "CUCCGA", "number": 1.82}
{"variantLabel": "UAUCUU", "number": 1.88}
{"variantLabel": "AGUACA", "number": 1.67}

Just for reference, the supplement of paper PMC6757056 is where these values come from.
